Biological target: HLA-A*31:01
Assay: IEDB peptide-MHC binding, purified MHC/direct/fluorescence; filed as Kd, often an IC50 or EC50 that approximates it; bounds were set here for any values at or beyond the usual limits of such assays
Conditions: source organism: Haemophilus influenzae
reportedProperty: pKd
Schema: pKd number; meaning minus log10 of the concentration expressed in molar units.

Item: `RFLEDYFGV` | pKd: 6.25

====

Target: HLA-B*15:01
Experiment: IEDB peptide-MHC binding, purified MHC/direct/fluorescence; filed as Kd, often an IC50 or EC50 that approximates it; bounds were set here for any values at or beyond the usual limits of such assays
Conditions: source organism: Listeria monocytogenes
reportedProperty: Kd (nM)
Entry rule: numbers only, all in nM.

Item: `LMKAPGTYH` | Kd: 66.8

====

Target: HLA-A*23:01
Experiment: IEDB peptide-MHC binding, purified MHC/direct/fluorescence; filed as Kd, often an IC50 or EC50 that approximates it; bounds were set here for any values at or beyond the usual limits of such assays
Settings: source organism: Limestone Canyon virus
reportedProperty: Kd

Item: `LVTARQKLK` | Kd: ≥ 20 µM

====

Target: HLA-B*83:01
Test: IEDB peptide-MHC binding, purified MHC/competitive/fluorescence; filed as Kd, often an IC50 or EC50 that approximates it; bounds were set here for any values at or beyond the usual limits of such assays
Conditions: source organism: Yersinia pestis Nepal516
reportedProperty: Kd

Item: `YMYDFILRF` | Kd: ≥ 5 µM

Item: `VEMQLAVVI` | Kd: ≥ 5 µM

====

Target: HLA-B*15:01
Test: IEDB peptide-MHC binding, purified MHC/competitive/fluorescence; filed as Kd, often an IC50 or EC50 that approximates it; bounds were set here for any values at or beyond the usual limits of such assays
Conditions: source organism: Escherichia coli B171
reportedProperty: Kd (nM)
Entry rule: numbers only, all in nM.

Item: `VSALRLFNY` | Kd: 796

====

Target: HLA-A*02:01
Assay: IEDB peptide-MHC binding, purified MHC/competitive/fluorescence; filed as Kd, often an IC50 or EC50 that approximates it; bounds were set here for any values at or beyond the usual limits of such assays
Conditions: source organism: Rickettsia bellii RML369-C
reportedProperty: pKd
Schema: pKd number; meaning minus log10 of the concentration expressed in molar units.

Item: `FTIGNMFSL` | pKd: 7.61

====

Biological target: HLA-B*08:02
Test: IEDB peptide-MHC binding, purified MHC/direct/fluorescence; filed as Kd, often an IC50 or EC50 that approximates it; bounds were set here for any values at or beyond the usual limits of such assays
Settings: source organism: Giardia lamblia ATCC 50803
reportedProperty: Kd (nM)
Entry rule: numbers only, all in nM.

Item: `YSKIRGAAL` | Kd: 445

====

Target: HLA-A*30:02
Assay: IEDB peptide-MHC binding, purified MHC/competitive/radioactivity; filed as Kd, often an IC50 or EC50 that approximates it; bounds were set here for any values at or beyond the usual limits of such assays
Conditions: source organism: SARS coronavirus Tor2
The label True is reserved for Kd strictly under 20 nM; False covers values equal to or above it.

Quick check: does `HTLSIHDGY` have Kd under 20 nM?
True

Quick check: does `PVSAMVRMY` have Kd under 20 nM?
False

Quick check: does `VYSDVETPHL` have Kd under 20 nM?
False

Quick check: does `TPSGTWLTY` have Kd under 20 nM?
False

Quick check: does `IFWRNTNPI` have Kd under 20 nM?
False

Quick check: does `IMLVYCFLGY` have Kd under 20 nM?
False

Quick check: does `CTFLLNKEMY` have Kd under 20 nM?
False

Quick check: does `ASFYYIWKSY` have Kd under 20 nM?
True

Quick check: does `EYPIIGDEL` have Kd under 20 nM?
False

Quick check: does `EFSSNVANY` have Kd under 20 nM?
False

Quick check: does `TTTIKPVSY` have Kd under 20 nM?
False

Quick check: does `VYMPASWVM` have Kd under 20 nM?
False

Quick check: does `AMVRMYIFF` have Kd under 20 nM?
False

Quick check: does `STGNYNYKY` have Kd under 20 nM?
False

Quick check: does `GTFLCANEY` have Kd under 20 nM?
True

Quick check: does `TVATSRTLSY` have Kd under 20 nM?
False

Quick check: does `ETPHLMGWDY` have Kd under 20 nM?
False

Cited source: the Immune Epitope Database (IEDB)
